A collection of molecules and their measured IC50
- Test system: HSV-1
- TEST_DETAILS: HSV Antiviral (ELISA) Assay
- Assay type: cell-based, herpes simplex virus type 1
- TEST_PARAMETERS: Human alphaherpesvirus 1; Vero cells; read-out: IC50 (ug/ml) HSV
Unit µg/mL implied. Number only.

Worked cases, answers included:
STRUCTURE | RECORDED_MEASUREMENT
COc1cc(OC)c(NC(=S)Nc2ccc(NC(=O)c3ccco3)c(OC)c2)cc1Cl | 8
COc1cc(OC)c(NC(=S)Nc2cc(O)c(NC(=O)c3ccco3)cc2Cl)cc1Cl | 8
COc1cc(OC)c(NC(=S)Nc2ccc(NC(=O)c3ccco3)cc2C)cc1Cl | 1.2
COc1cc(OC)c(NC(=S)Nc2ccc(NC(=O)c3ccco3)cc2Cl)cc1Cl | 0.5
COc1cc(OC)c(NC(=S)Nc2ccc(NC(=O)c3ccco3)c(C(=O)Nc3ccccc3)c2)cc1Cl | 10
COc1cc(OC)c(NC(=S)Nc2ccc(NC(=O)c3ccco3)cc2OC)cc1Cl | 0.5

Field: IC50 (HSV-1). Entry: COc1cc(OC)c(NC(=S)Nc2ccc(NC(=O)c3ccco3)c(C)c2)cc1Cl
12

Likewise for COc1cc(OC)c(NC(=S)Nc2ccc(NC(=O)c3ccco3)cc2C(F)(F)F)cc1Cl ?
2.5

Likewise for COc1cc(OC)c(NC(=S)Nc2cc(OC)c(NC(=O)c3ccco3)cc2C)cc1Cl ?
8

Likewise for COc1cc(OC)c(NC(=S)Nc2ccc(NC(=O)c3ccco3)c(C(F)(F)F)c2)cc1Cl ?
10

Likewise for COc1cc(OC)c(NC(=S)Nc2ccc(NC(=O)c3ccco3)c3ccccc23)cc1Cl ?
4
